- study-target: T1, human MSLN-FL-his protein (human, UniProt Q13421 296-580)
- T1 construct: made in HEK293E cells, purified on nickel column; also called hMSLN-FL-his; human MSLN full-length protein; not shown: His tag
- T1 sequence (Q13421 other isoform, or with tags, fused parts or gaps): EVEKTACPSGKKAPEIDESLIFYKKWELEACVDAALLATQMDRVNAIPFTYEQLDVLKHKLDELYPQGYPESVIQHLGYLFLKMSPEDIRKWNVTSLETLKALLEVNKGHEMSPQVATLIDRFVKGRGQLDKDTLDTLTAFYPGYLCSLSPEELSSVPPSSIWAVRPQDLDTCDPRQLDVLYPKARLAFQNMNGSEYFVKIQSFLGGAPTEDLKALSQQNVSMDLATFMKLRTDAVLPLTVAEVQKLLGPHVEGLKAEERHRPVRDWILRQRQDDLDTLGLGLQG
- test-method-notes: SPR (Biacore), antibody captured on Protein A chip;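 further: flow cell at 25 °C, antigen injected for 240 s at five concentrations from 200 nM downward, dissociation followed up to 600 s, double-referenced, fitted with Langmuir 1:1 model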
property-name: koff (s⁻¹)
Note: unit s⁻¹ is implicit; provide only the numeric part.

Check out these entries, answers already filled in.
binder: S009-F8-33.12 (antibody, human IgG1, kappa, V domains shown, human-murine chimeric antibody, human IgG1/kappa constant regions) VH: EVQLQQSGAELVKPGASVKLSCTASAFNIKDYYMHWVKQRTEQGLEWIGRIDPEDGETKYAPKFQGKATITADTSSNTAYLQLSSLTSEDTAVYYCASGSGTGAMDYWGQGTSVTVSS VL: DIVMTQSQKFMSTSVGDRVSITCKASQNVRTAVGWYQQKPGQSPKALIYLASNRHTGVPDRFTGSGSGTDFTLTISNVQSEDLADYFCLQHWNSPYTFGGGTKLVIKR
koff [s⁻¹]: 0.0361
//
binder: S009-F7.30.5 (antibody, human IgG1, kappa, V domains shown, human-murine chimeric antibody, human IgG1/kappa constant regions) VH: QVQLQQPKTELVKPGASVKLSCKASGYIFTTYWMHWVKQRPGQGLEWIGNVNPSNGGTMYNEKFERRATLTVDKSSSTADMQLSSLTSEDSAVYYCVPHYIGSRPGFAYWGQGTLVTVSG VL: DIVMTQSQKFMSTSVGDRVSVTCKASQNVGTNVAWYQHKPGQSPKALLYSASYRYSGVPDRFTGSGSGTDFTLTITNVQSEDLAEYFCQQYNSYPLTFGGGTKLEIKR
koff [s⁻¹]: 0.000705
//
binder: S009-F7.21.16 (antibody, human IgG1, kappa, V domains shown, human-murine chimeric antibody, human IgG1/kappa constant regions) VH: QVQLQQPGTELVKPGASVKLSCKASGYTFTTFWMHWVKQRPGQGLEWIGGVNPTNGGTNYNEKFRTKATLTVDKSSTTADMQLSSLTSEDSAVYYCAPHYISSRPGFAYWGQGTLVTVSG VL: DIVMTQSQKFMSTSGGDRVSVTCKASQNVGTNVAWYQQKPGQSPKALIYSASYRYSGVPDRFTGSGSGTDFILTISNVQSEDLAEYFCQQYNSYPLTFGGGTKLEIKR
koff [s⁻¹]: 0.000773
//
binder: S009-F7.12.13 (antibody, human IgG1, kappa, V domains shown, human-murine chimeric antibody, human IgG1/kappa constant regions) VH: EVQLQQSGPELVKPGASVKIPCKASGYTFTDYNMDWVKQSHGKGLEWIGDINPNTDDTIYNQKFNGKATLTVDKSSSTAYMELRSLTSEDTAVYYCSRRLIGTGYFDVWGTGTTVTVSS VL: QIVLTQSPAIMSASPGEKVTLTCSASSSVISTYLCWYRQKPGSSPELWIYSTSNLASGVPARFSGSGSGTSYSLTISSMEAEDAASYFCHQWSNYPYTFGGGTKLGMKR
koff [s⁻¹]: 0.00892
//
binder: S009-F7.66.12 (antibody, human IgG1, kappa, V domains shown, human-murine chimeric antibody, human IgG1/kappa constant regions) VH: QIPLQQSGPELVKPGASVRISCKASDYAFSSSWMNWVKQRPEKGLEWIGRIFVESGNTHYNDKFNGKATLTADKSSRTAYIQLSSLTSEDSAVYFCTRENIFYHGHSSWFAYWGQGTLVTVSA VL: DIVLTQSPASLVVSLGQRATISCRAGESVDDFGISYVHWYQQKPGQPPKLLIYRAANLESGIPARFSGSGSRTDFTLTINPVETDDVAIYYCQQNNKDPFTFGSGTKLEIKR
koff [s⁻¹]: 0.00236
//
binder: S009-F8-13.8 (antibody, human IgG1, kappa, V domains shown, human-murine chimeric antibody, human IgG1/kappa constant regions) VH: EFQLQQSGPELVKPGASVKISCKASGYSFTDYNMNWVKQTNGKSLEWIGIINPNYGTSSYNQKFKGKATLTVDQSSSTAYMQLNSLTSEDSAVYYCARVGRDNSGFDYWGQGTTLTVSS VL: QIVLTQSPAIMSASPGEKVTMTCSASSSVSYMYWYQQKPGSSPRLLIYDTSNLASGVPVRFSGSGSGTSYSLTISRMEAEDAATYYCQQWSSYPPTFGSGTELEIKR
koff [s⁻¹]: 0.00125
//
binder: S009-F8-4.5 (antibody, human IgG1, kappa, V domains shown, human-murine chimeric antibody, human IgG1/kappa constant regions) VH: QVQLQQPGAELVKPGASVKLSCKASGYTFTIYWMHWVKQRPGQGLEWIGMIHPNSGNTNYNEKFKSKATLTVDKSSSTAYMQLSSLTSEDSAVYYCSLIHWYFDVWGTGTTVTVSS VL: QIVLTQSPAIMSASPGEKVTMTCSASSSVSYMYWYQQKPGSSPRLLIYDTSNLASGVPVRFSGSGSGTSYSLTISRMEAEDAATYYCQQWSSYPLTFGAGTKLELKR
koff [s⁻¹]: 0.000599
//
binder: S009-F8-18.9 (antibody, human IgG1, kappa, V domains shown, human-murine chimeric antibody, human IgG1/kappa constant regions) VH: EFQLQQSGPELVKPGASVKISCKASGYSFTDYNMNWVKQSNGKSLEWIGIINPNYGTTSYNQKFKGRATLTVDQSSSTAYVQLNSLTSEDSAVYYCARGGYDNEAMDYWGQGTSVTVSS VL: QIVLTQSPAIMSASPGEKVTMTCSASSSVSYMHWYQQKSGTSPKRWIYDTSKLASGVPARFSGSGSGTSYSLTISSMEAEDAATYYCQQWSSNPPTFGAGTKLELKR
koff [s⁻¹]: 0.000876
//
binder: S009-F8-28.23 (antibody, human IgG1, kappa, V domains shown, human-murine chimeric antibody, human IgG1/kappa constant regions) VH: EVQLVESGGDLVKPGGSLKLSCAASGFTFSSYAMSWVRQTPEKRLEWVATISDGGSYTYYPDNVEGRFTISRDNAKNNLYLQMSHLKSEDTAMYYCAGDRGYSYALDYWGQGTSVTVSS VL: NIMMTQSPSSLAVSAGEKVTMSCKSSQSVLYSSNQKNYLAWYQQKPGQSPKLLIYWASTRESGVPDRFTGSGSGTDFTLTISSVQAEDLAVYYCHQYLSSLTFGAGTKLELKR
koff [s⁻¹]: 0.00843

Let us move to another entry and its koff.
**Query** If you can, please state the reported koff value of S009-F8-8.22 (antibody, human IgG1, kappa, V domains shown, human-murine chimeric antibody, human IgG1/kappa constant regions) VH: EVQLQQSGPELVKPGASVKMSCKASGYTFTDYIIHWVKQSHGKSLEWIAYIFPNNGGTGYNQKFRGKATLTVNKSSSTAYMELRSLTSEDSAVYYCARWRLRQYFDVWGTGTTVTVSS VL: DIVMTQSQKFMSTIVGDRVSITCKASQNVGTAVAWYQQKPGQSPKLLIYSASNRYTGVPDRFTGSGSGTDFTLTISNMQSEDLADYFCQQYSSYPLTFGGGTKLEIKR .
**Result** 0.00937
